tested on: PPARg:RXRa 30nM:10nM, anti-RXR (NR concentration 30 nM, RXRa partner concentration 10 nM); test: PBM binding z-score (relative to random genomic background probes); higher = stronger binding; sequences stand for … in GC…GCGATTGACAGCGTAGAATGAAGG
Would you mind labelling by PBM binding z-score? At or over 0.5 is TRUE, under is FALSE.

Request: Quick check, PBM binding z-score >= 0.5? TCTCGGAGGACACGAAGGTAAGAGCTTTCCAGAG
Result: TRUE

Request: Follow-up entry: TCGAGTAGGTTACCATTGGGGCATTCAGCTTTCT
Result: TRUE

Request: Follow-up entry: CGTCAAAGTTCGAGGTAACGTAACAGAAAGCAGC
Result: FALSE

Request: Follow-up entry: CCTTACGGGTCACTGCCAGGTTATAGCATTTGGA
Result: TRUE

Request: Follow-up entry: CCTAGCAGGCCAATCTGGGTCACTCTAGGCTTGA
Result: FALSE

Request: Follow-up entry: GCTGCTAGGTCAGGTTGGTCAGCTAGCGGGTACG
Result: FALSE

Request: Follow-up entry: CGTCCAAGGTCAGACAGGTCAGTGAATGCCGAGT
Result: TRUE

Request: Follow-up entry: GTACCAAGCTGAATAGGTCGTTGATGAGTAGGCG
Result: FALSE

Request: Follow-up entry: CCTAGTAGGTCAAGGTCACACACGCTATAGGTAC
Result: TRUE

Request: Follow-up entry: CGTCAAATTTCAAGGTAACGTAACAGAAAGCAGC
Result: FALSE

Request: Follow-up entry: CGAACTAGTTCAGAACAGGACAGTGAAGGATGAT
Result: FALSE

Request: Follow-up entry: TCTTGTAGATCATCAGGAGGTTAAGAAAGATCGA
Result: TRUE
